src = ChEMBL document CHEMBL3797142

Assay: Drug metabolism in pH 7.4 PBS assessed as remaining parent compound level at 1 mM at 37 degC after 3 days by RP-HPLC analysis
Assay type: physicochemical
Measurement Parameters: read-out: Stability
Recorded Metric: remaining at 72 h, 1000 µM (%)
Numbers only, in %.

Request: Reported remaining at 72 h, 1000 µM for CC[C@@]1(OC(=O)CCC(=O)NCCCC[C@H](N)C(N)=O)C(=O)OCc2c1cc1n(c2=O)Cc2cc3ccccc3nc2-1 : what is it?
Result: 39

----------
Assay: Solubility of the compound in water
Type: physicochemical
Record form. Attribute: solubility. Fill in for each entry.
Give bare numbers, in µg/mL.

[
  {
    "Structure Smiles": "CC[C@@]1(OC(=O)CCC(=O)NCCCC[C@H](N)C(N)=O)C(=O)OCc2c1cc1n(c2=O)Cc2cc3ccccc3nc2-1",
    "solubility / µg/mL": 12100
  }
]

Shifting focus to the molecule that follows.
Request: Reported solubility for CC[C@@]1(O)C(=O)OCc2c1cc1n(c2=O)Cc2cc3ccccc3nc2-1 : what is it?
Result: 3
